Reference source: patent US20120232070A1

The reader will find reported pEC50 values listed item by item below.
Target: hNurr1_RXRαFL (NURR1/RXRα heterodimer) (Homo sapiens, UniProt P19793+P43354)
Sequence (P19793 whole entry, one chain of several, the tested form may be a part): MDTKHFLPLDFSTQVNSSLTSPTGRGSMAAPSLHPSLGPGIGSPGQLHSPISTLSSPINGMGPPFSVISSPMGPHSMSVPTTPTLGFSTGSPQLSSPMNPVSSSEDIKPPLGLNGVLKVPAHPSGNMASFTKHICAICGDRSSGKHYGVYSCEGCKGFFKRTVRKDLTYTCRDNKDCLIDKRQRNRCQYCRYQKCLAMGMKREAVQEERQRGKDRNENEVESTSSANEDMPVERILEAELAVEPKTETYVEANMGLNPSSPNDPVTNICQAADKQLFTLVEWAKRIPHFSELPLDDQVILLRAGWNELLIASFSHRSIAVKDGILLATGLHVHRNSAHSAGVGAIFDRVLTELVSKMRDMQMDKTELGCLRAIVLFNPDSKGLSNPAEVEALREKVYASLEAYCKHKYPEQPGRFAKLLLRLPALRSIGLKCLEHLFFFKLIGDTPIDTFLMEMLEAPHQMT
Experiment: Transactivation assay in Cos-7 cells, NURR-1-Gal4 / RXRα, luciferase reporter
Conditions: Cos-7 cells, overnight incubation
Convention used: pEC50 is expressed as -log10 of the molar concentration.

Output measured pEC50 for this item: CCC(C)(C)c1ccc(S(=O)(=O)n2c(Cc3ccc(C(=O)O)cc3)cc3cc(C(F)(F)F)ccc32)cc1 [Example 12]
6.95

====

The reader will find reported Emax values listed item by item below.
Molecular target: hNurr1_RXRγFL (NURR1/RXRγ heterodimer) (Homo sapiens, UniProt P43354+P48443)
Sequence (P43354 328-598): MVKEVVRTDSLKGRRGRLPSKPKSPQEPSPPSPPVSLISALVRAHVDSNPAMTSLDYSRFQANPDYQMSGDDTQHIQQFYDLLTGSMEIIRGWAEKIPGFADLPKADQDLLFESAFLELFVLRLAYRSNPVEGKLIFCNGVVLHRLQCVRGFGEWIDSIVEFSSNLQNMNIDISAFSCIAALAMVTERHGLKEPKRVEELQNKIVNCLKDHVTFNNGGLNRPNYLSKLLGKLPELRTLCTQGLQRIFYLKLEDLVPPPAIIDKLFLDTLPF
Sequence (P48443 whole entry, the tested form may be a part): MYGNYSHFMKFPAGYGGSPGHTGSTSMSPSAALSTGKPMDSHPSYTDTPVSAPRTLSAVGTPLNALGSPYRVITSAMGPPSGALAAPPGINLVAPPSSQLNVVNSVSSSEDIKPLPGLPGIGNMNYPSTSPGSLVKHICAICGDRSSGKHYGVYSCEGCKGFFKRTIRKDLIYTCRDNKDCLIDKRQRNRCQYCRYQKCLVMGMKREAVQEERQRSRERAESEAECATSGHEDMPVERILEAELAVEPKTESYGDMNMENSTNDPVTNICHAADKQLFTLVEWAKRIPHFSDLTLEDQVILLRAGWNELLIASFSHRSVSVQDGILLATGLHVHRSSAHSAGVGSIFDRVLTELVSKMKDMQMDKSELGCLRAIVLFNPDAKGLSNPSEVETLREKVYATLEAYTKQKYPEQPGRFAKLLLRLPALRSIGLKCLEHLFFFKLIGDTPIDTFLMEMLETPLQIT
Assay: Transactivation assay in Cos-7 cells, NURR-1-Gal4 / RXRγ, luciferase reporter
Assay type: cell-based
Conditions: COS-7, read-out: hNurr1_RXRγFL Eff (%), efficacy in % relative to the reference XCT0135908 at 2·10^−5 M (=100%)
Write the number in % without appending the unit.

1. O=C(O)c1ccc(Cc2cc3cc(C(F)(F)F)ccc3n2S(=O)(=O)c2cccc(Cl)c2)cc1 = 18
2. CC(C)c1ccc(S(=O)(=O)n2c(Cc3ccc(C(=O)O)c(Cl)c3)cc3cc(C(F)(F)F)ccc32)cc1 = 51
3. CC(C)(C)c1cccc(S(=O)(=O)n2c(Cc3ccc(C(=O)O)cc3)cc3cc(C(F)(F)F)c(F)cc32)c1 = 73
4. CC(C)(C)c1cccc(S(=O)(=O)n2c(Cc3ccc(C(=O)O)cc3)cc3cc(C(F)(F)F)ccc32)c1 = 71
5. O=C(O)c1ccc(Cc2cc3cc(Cl)ccc3n2S(=O)(=O)c2cccc(Cl)c2)cc1 = 47
6. COC(=O)c1ccc(Cc2cc3cc(C(C)(C)C)ccc3n2S(=O)(=O)c2cccc(C(C)(C)C)c2)cc1 = 77

Now for the compound whose Emax we want.
Output measured Emax for this item: CCc1ccc(S(=O)(=O)n2c(Cc3ccc(C(=O)O)cc3)cc3cc(Cl)ccc32)cc1
45
